Ref: ChEMBL document CHEMBL3763039

- Tested on: Listeria innocua
- ASSAY NAME: Antibacterial activity against Listeria innocua incubated for 16 to 18 hrs by broth microdilution method
- Type: functional
Where a SMILES comes first, the peptide text is derived from it. Bridges are numbered along the chain shown (N, C = ends). [ ]: non-standard residue; d: D form. The star is where a group is joined. Phe(F5) = N[C@@H](Cc1c(F)c(F)c(F)c(F)c1F)C(=O)O; Phe(3,5-F2) = N[C@@H](Cc1cc(F)cc(F)c1)C(=O)O; Pip(4S-Me) = C[C@H]1CCN[C@H](C(=O)O)C1; Pro(4R-Me) = C[C@H]1CN[C@H](C(=O)O)C1; Tiq1c(1S) = O=C(O)[C@H]1NCCc2ccccc21; Heptenoyl(2E) = CCCC/C=C/C(=O)*; Cha = N[C@@H](CC1CCCCC1)C(=O)O; Pip = O=C(O)[C@@H]1CCCCN1; Abu = CC[C@H](N)C(=O)O
Please provide measured MIC for the entries that follow.

Any idea what MIC was measured for CCCC/C=C/C(=O)N[C@@H](Cc1cc(F)cc(F)c1)C(=O)N[C@H]1COC(=O)[C@@H]2C[C@@H](C)CN2C(=O)[C@H](CC)NC(=O)[C@@H]2CCCN2C(=O)[C@@H]2CCCN2C1=O ({Heptenoyl(2E)}-[Phe(3,5-F2)]SPP[Abu][Pro(4R-Me)]; ester 2-C) ?
≤ 0.0625 µg/mL

Any idea what MIC was measured for CCCC/C=C/C(=O)N[C@@H](CC1CCCCC1)C(=O)N[C@H]1COC(=O)[C@@H]2C[C@@H](C)CN2C(=O)[C@H](CC)NC(=O)[C@@H]2CCCCN2C(=O)[C@@H]2CCCN2C1=O ({Heptenoyl(2E)}-[Cha]SP[Pip][Abu][Pro(4R-Me)]; ester 2-C) ?
≤ 0.0625 µg/mL

Any idea what MIC was measured for CCCC/C=C/C(=O)N[C@@H](Cc1cc(F)cc(F)c1)C(=O)N[C@H]1COC(=O)[C@@H]2C[C@@H](C)CN2C(=O)[C@H](C)NC(=O)[C@@H]2C[C@@H](C)CCN2C(=O)[C@@H]2CCCN2C1=O ({Heptenoyl(2E)}-[Phe(3,5-F2)]SP[Pip(4S-Me)]A[Pro(4R-Me)]; ester 2-C) ?
≤ 0.0625 µg/mL

Any idea what MIC was measured for `CCCC/C=C/C(=O)N[C@@H](Cc1cc(F)cc(F)c1)C(=O)N[C@@H]1C(=O)N2CCC[C@H]2C(=O)N2CCCC[C@H]2C(=O)N[C@@H](C)C(=O)N2CCC[C@H]2C(=O)O[C@H]1C` ?
≤ 0.0625 µg/mL

Any idea what MIC was measured for CCCC/C=C/C(=O)N[C@@H](Cc1c(F)c(F)c(F)c(F)c1F)C(=O)N[C@H]1COC(=O)[C@@H]2C[C@@H](C)CN2C(=O)[C@H](CC)NC(=O)[C@@H]2CCCCN2C(=O)[C@@H]2CCCN2C1=O ({Heptenoyl(2E)}-[Phe(F5)]SP[Pip][Abu][Pro(4R-Me)]; ester 2-C) ?
4 µg/mL

Any idea what MIC was measured for CCCC/C=C/C(=O)N[C@@H](Cc1cc(F)cc(F)c1)C(=O)N[C@H]1COC(=O)[C@@H]2C[C@@H](C)CN2C(=O)[C@H](CC)NC(=O)[C@@H]2c3ccccc3CCN2C(=O)[C@@H]2CCCN2C1=O ({Heptenoyl(2E)}-[Phe(3,5-F2)]SP[Tiq1c(1S)][Abu][Pro(4R-Me)]; ester 2-C) ?
0.125 µg/mL

Any idea what MIC was measured for `C[C@@H]1C[C@H]2C(=O)O[C@@H](C)[C@H](NC(=O)[C@H](Cc3cc(F)cc(F)c3)NC(=O)/C=C/CCCCC(=O)O)C(=O)N3CCC[C@H]3C(=O)N3CCCC[C@H]3C(=O)N[C@@H](C)C(=O)N2C1` ?
0.5 µg/mL

Any idea what MIC was measured for `CCCC/C=C/C(=O)N[C@@H](Cc1cc(F)cc(F)c1)C(=O)N[C@@H]1C(=O)N2CCC[C@H]2C(=O)N2CCCC[C@H]2C(=O)N[C@@H](C)C(=O)N2C[C@H](C)C[C@H]2C(=O)O[C@H]1C` ?
≤ 0.0625 µg/mL

Any idea what MIC was measured for `C[C@@H]1C[C@H]2C(=O)O[C@@H](C)[C@H](NC(=O)[C@H](Cc3cc(F)cc(F)c3)NC(=O)/C=C/CC3CC3)C(=O)N3CCC[C@H]3C(=O)N3CCCC[C@H]3C(=O)N[C@@H](C)C(=O)N2C1` ?
≤ 0.0625 µg/mL

Any idea what MIC was measured for `CCCC/C=C/C(=O)N[C@@H](Cc1cc(F)cc(F)c1)C(=O)N[C@@H]1C(=O)N2CCC[C@H]2C(=O)N2CC[C@H](C)C[C@H]2C(=O)N[C@@H](C)C(=O)N2C[C@H](C)C[C@H]2C(=O)O[C@H]1C` ?
≤ 0.0625 µg/mL

----------
- System: Pseudomonas aeruginosa
- ASSAY NAME: Antibacterial activity against Pseudomonas aeruginosa PAO1 incubated for 16 to 18 hrs by broth microdilution method
- Type: functional
Where a SMILES comes first, the peptide text is derived from it. Bridges are numbered along the chain shown (N, C = ends). [ ]: non-standard residue; d: D form. The star is where a group is joined. Phe(3,5-F2) = N[C@@H](Cc1cc(F)cc(F)c1)C(=O)O; Pip(4S-Me) = C[C@H]1CCN[C@H](C(=O)O)C1; Pro(4R-Me) = C[C@H]1CN[C@H](C(=O)O)C1; Bta = N[C@@H](Cc1csc2ccccc12)C(=O)O; Heptenoyl(2E) = CCCC/C=C/C(=O)*; Pip = O=C(O)[C@@H]1CCCCN1; Abu = CC[C@H](N)C(=O)O
MEASURED QUANTITY: MIC

Any idea what MIC was measured for CCCC/C=C/C(=O)N[C@@H](Cc1csc2ccccc12)C(=O)N[C@H]1COC(=O)[C@@H]2C[C@@H](C)CN2C(=O)[C@H](CC)NC(=O)[C@@H]2CCCCN2C(=O)[C@@H]2CCCN2C1=O ({Heptenoyl(2E)}-[Bta]SP[Pip][Abu][Pro(4R-Me)]; ester 2-C) ?
> 128 µg/mL

Any idea what MIC was measured for CCCC/C=C/C(=O)N[C@@H](Cc1cc(F)cc(F)c1)C(=O)N[C@H]1COC(=O)[C@@H]2C[C@@H](C)CN2C(=O)[C@H](C)NC(=O)[C@@H]2C[C@@H](C)CCN2C(=O)[C@@H]2CCCN2C1=O ({Heptenoyl(2E)}-[Phe(3,5-F2)]SP[Pip(4S-Me)]A[Pro(4R-Me)]; ester 2-C) ?
> 128 µg/mL

Any idea what MIC was measured for `O=C(N[C@H](CO)[C@H](O)c1ccc([N+](=O)[O-])cc1)C(Cl)Cl` ?
8 µg/mL

----------
- Test system: Listeria innocua
- ASSAY NAME: Antibacterial activity against Listeria innocua incubated for 16 to 18 hrs by broth microdilution method
- Assay type: functional
Where a SMILES comes first, the peptide text is derived from it. Bridges are numbered along the chain shown (N, C = ends). [ ]: non-standard residue; d: D form. The star is where a group is joined. Phe(3,5-F2) = N[C@@H](Cc1cc(F)cc(F)c1)C(=O)O; Pip(4S-Me) = C[C@H]1CCN[C@H](C(=O)O)C1; 2Nal = N[C@@H](Cc1ccc2ccccc2c1)C(=O)O; Pro(4R-Me) = C[C@H]1CN[C@H](C(=O)O)C1; Heptenoyl(2E) = CCCC/C=C/C(=O)*; aThr = C[C@H](O)[C@H](N)C(=O)O; Pip = O=C(O)[C@@H]1CCCCN1; NMeA = CN[C@@H](C)C(=O)O; X1 = CCC/C=C/C=C/C(=O)*; Abu = CC[C@H](N)C(=O)O
MEASURED QUANTITY: MIC

Recall the recorded MIC for CCCC/C=C/C(=O)N[C@@H](Cc1cc(F)cc(F)c1)C(=O)N[C@@H]1C(=O)N2CCC[C@H]2C(=O)N2CC[C@H](C)C[C@H]2C(=O)N[C@@H](C)C(=O)N2CCC[C@H]2C(=O)O[C@H]1C ({Heptenoyl(2E)}-[Phe(3,5-F2)][aThr]P[Pip(4S-Me)]AP; ester 2-C) with Listeria innocua and state it.
≤ 0.0625 µg/mL

Recall the recorded MIC for CCC/C=C/C=C/C(=O)N[C@@H](Cc1ccccc1)C(=O)N[C@H]1COC(=O)[C@@H]2C[C@@H](C)CN2C(=O)[C@H](C)NC(=O)[C@H](C)N(C)C(=O)[C@@H]2CCCN2C1=O (X1-FSP[NMeA]A[Pro(4R-Me)]; ester 2-C) with Listeria innocua and state it.
≤ 0.0625 µg/mL

Recall the recorded MIC for CCCC/C=C/C(=O)N[C@@H](Cc1ccc2ccccc2c1)C(=O)N[C@H]1COC(=O)[C@@H]2C[C@@H](C)CN2C(=O)[C@H](CC)NC(=O)[C@@H]2CCCCN2C(=O)[C@@H]2CCCN2C1=O ({Heptenoyl(2E)}-[2Nal]SP[Pip][Abu][Pro(4R-Me)]; ester 2-C) with Listeria innocua and state it.
0.5 µg/mL

Recall the recorded MIC for CCC/C=C/C=C/C(=O)N[C@@H](Cc1cc(F)cc(F)c1)C(=O)N[C@@H]1C(=O)N2CCC[C@H]2C(=O)N2CCCC[C@H]2C(=O)N[C@@H](C)C(=O)N2C[C@H](C)C[C@H]2C(=O)O[C@H]1C (X1-[Phe(3,5-F2)][aThr]P[Pip]A[Pro(4R-Me)]; ester 2-C) with Listeria innocua and state it.
≤ 0.0625 µg/mL
